- System: HCC70
- assay.procedure: Anti-proliferation assay (ATPLite), Chalice synergy score
- Type: cell-based
- test.context: Compound 1 in combination with second active agent; HCC-70; mean self-cross + 2σ threshold 3.45
Where a name gives a salt, the structure may show the parent alone.
endpoint: Synergy score

1. COc1ccc(C2=N[C@@H](c3ccc(Cl)cc3)[C@@H](c3ccc(Cl)cc3)N2C(=O)N2CCNC(=O)C2)c(OC(C)C)c1 [Nutlin-3] :: 2.72
2. COc1ccc(Cl)c(Nc2nc3ccccc3nc2NS(=O)(=O)c2cccc(NC(=O)C(C)(C)N)c2)c1 [XL147] :: 0.09
3. CNC(=O)c1ccc(-c2cnc3ncc(Cc4ccc5ncccc5c4)n3n2)cc1F [INCB28060] :: 0.75

## Input Entry under review: CCc1c2c(nc3ccc(OC(=O)N4CCC(N5CCCCC5)CC4)cc13)-c1cc3c(c(=O)n1C2)COC(=O)[C@]3(O)CC [Irinotecan Hydrochloride] . Reported Synergy score?
## Output 1.98

## Input Which Synergy score reading was recorded for the compound COc1cccc2c1C(=O)c1c(O)c3c(c(O)c1C2=O)C[C@@](O)(C(=O)CO)C[C@@H]3O[C@H]1C[C@H](N)[C@H](O)[C@H](C)O1 [Doxorubicin Hcl, Doxorubicin HCl] ?
## Output 4.00

## Input Fill in: Synergy score of OCCn1cc(-c2ccc3c(c2)CC/C3=N\O)c(-c2ccncc2)n1 [GDC-0879] is ___
## Output 0.43

## Input // Synergy score lookup, key: Cc1ccc(S(=O)(=O)/C=C/C#N)cc1 [Bay 11-7082]
## Output 1.13

## Input Given the entry O=C(/C=C/c1cccc(S(=O)(=O)Nc2ccccc2)c1)NO [Belinostat] , report its measured Synergy score.
## Output 10.10

## Input What value of Synergy score has been recorded for this entry: C[C@]1(c2nc3c(C(N)=O)cccc3[nH]2)CCCN1 [ABT-888]
## Output 1.10

## Input # lookup: Synergy score of O=C(NC[C@H](O)CO)c1ccncc1Nc1ccc(I)cc1F [AS703026]
## Output 13.70

## Input GET /values?readout=Synergy score&item= CC(C)(C)Cn1c(N)nc2ccc(-c3[nH]c(C(C)(C)C)nc3-c3ccc(F)cc3)nc21 [LY2228820]
## Output 3.65

## Input Which value of Synergy score has been reported for C[C@@H]1CN(CC(=O)Nc2ccc3c(c2)Cc2cccc(-c4cc(=O)cc(N5CCOCC5)o4)c2S3)C[C@H](C)O1 [KU-60019] in the records?
## Output 0.21

## Input Tell me the measured Synergy score of CO[C@H]1/C=C\C=C(/C)C(=O)NC2=CC(=O)C(NCCN(C)C)=C(C[C@@H](C)C[C@H](OC)[C@H](O)[C@@H](C)/C=C(\C)[C@@H]1OC(N)=O)C2=O [Compound 17-DMAG] , please.
## Output 11.10

## Input // Synergy score lookup, key: COc1ccc(-c2ccc3c(N4CCOC[C@@H]4C)nc(N4CCOC[C@@H]4C)nc3n2)cc1CO [AZD8055]
## Output 1.13

## Input Which Synergy score value belongs to N.N.O=C([O-])C1(C(=O)[O-])CCC1.[Pt+2] [Carboplatin] ?
## Output 2.26
